Attribution: patent EP2147913A1

System: wild type HIV-1 virus (NL 4.3 strains)
MEASUREMENT_NOTES: Antiviral activity assay on Hela P4 cells
Assay type: cell-based
CONDITION_LABEL: Human immunodeficiency virus 1, HeLaP4, 48 h, read-out: P4 IC50 (µM)
Description: The antiviral activity is determined by infecting HelaP4 cells with a wild type HIV-1 virus (NL 4.3 strains at 3 ng) on cells in presence or absence of drugs. A serial dilution of drugs is done to evaluate the EC50. […] After 48 hours incubation, the quantification is done by the evaluation of β-Galactosidase produced by the infected Hela P4 cells. The viral activity is evaluated by colorimetric assay, CPRG, followed by plate reading at 570 nm with a reference of 690 nm. […]
Items are presented alongside their recorded IC50.
Lab book: enter the figure in µM, no units written.

Worked cases, answers included:
1. O=C(O)c1ccc2ccc(/C=C/c3cc(O)c(O)c(Cl)c3)nc2c1O [SQE41]
5
2. COc1cc(/C=C/c2ccc3ccc(Br)c(O)c3n2)cc(O)c1O [SQE63]
0.82

Shifting focus to the compound that follows.
Enquiry: For the record O=C(O)c1ccc2ccc(/C=C/c3cc(O)c(O)c([N+](=O)[O-])c3)nc2c1O [SQE67] , what value of IC50 is listed for wild type HIV-1 virus (NL 4.3 strains)?
Return: 6.2
